system: T. cruzi-infected H9C2 cardiomyocytes, high-content imaging; test: intracellular T. cruzi amastigote inhibition, imaging, H9C2 host cardiomyocytes, host toxicity (AID 1159565); details: measured here: amastigotes per cell;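 note: infected cells incubated 72 h after plating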
# IC50 listing for each entry below
Respond numerically; units are µM and should not be typed.

Consider the worked cases shown below.
INSERT INTO assay_data (compound, result_units, numeric_readout) VALUES
  ('O=c1[nH]cnc2c([C@@H]3O[C@H](CO)[C@@H](O)[C@H]3O)[nH]nc12', 'µM', 0.32),
  ('COc1ccc(S(=O)(=O)Nc2ccc(CN3CCN(C(=O)c4cccc(C#N)c4)CC3)cc2)cc1', 'µM', 0.79),
  ('c1ccc(Nc2nc3ccccc3[nH]2)nc1', 'µM', 10),
  ('Cc1ccc(-c2csc(NC(=O)C=Cc3ccc(S(=O)(=O)N4CCOCC4)cc3)n2)o1', 'µM', 10);

Reported IC50 for O=C(NCc1ccc(Cl)cc1)C1CN(C(=O)c2ccc(F)cc2)CCS1 (stereo not given) : what is it?
32

Return reported IC50; argument: "O=C1CN(C(=O)c2cccc(Nc3ncc(-c4ccc5c(c4)OCO5)cn3)c2)CCN1"
0.5

Looking for the measured IC50 of "CCOc1ccc(Nc2ccc(S(=O)(=O)N3CCN(C)CC3)cc2[N+](=O)[O-])cc1OCC" , can you help?
3.2

Any idea what its IC50 is? The compound is "CC(=O)Nc1ccc(-c2ccnc(Nc3cccc(C#N)c3)n2)cc1"
3.2

Query: IC50; subject: "CNC(=O)Oc1ccc(C(=O)NCc2ccccc2)cc1OC(=O)NC"
40

Record request: IC50 value, item COc1cccc(S(=O)(=O)Nc2ccc3c(c2)CC(N2CCC(NC(=O)C4CC4)CC2)C3)c1 (stereo not given)
32
